Target: T1, PDZ3 (the third PDZ domain of the neuronal signaling protein PSD-95/SAP90, residue 303-395) (UniProt P31016 303-395)
T1 construct: third PDZ domain of PSD-95/SAP90, residues 303-395; 15N-labelled for the NMR titration; also called PDZ3^303-395
T1 sequence (P31016 303-395): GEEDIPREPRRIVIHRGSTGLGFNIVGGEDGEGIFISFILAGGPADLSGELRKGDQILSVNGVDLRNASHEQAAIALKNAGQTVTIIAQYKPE
Experiment: NMR titration; 2D 1H-15N HSQC of 15N-labelled PDZ3 303-395 (20 uM) titrated with CRIPT peptide 0-100 uM; 308 K; 20 mM sodium phosphate, 50 mM NaCl, pH 7.0; no osmolyte; single-site fit of 12 backbone amides, averaged
Conditions: both partners purified
pKd: −log10 of the molar value.
quantity.measured: pKd

binder	result
Ac-TKNYKQTSV-OH (C-terminal nine residues of CRIPT; also called CRIPT peptide; source: synthetic peptide (APeptide Co. Ltd, Shanghai, China)) [C-terminal peptide from CRIPT (Ac-TKNYKQTSV-COOH)]	~4.89
